- experimentalSystem: UniProt P08183
- Sequence (P08183 whole entry): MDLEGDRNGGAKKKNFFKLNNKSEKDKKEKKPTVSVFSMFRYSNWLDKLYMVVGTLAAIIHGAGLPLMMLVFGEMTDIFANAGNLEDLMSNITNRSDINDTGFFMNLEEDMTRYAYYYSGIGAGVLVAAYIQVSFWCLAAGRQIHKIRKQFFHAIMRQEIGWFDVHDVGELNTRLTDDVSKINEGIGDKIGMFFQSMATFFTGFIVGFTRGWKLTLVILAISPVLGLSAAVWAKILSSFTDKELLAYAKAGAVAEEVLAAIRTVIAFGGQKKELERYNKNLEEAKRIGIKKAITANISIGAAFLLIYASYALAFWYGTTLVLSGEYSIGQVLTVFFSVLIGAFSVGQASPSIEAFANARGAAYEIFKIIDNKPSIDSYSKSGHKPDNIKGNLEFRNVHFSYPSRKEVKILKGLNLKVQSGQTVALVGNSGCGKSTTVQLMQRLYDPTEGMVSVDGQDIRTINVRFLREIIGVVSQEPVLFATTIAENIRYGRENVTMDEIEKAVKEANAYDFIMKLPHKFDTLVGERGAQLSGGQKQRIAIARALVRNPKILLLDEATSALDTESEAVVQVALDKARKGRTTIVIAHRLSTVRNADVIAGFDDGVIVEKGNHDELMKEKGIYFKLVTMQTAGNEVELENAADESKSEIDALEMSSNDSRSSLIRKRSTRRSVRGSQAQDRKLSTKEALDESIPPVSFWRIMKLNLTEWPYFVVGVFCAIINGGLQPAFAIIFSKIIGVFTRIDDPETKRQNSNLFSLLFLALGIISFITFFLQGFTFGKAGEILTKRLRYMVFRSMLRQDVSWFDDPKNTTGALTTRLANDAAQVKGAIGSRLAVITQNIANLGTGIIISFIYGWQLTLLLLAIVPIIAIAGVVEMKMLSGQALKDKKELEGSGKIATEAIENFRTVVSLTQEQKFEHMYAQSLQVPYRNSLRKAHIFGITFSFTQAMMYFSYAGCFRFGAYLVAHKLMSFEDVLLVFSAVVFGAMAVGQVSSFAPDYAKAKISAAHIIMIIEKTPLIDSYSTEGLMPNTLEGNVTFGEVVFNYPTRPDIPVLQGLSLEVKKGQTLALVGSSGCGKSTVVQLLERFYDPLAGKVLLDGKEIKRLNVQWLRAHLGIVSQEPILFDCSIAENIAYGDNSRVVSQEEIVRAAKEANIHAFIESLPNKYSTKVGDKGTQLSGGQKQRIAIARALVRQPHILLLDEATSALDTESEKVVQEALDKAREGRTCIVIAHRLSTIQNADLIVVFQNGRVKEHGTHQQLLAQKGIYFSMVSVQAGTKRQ
- experimentNotes: Correlation of ABCB1 expression with drug sensitivity across the NCI-60
In this section, each of the compounds is paired with its reported Pearson's Correlation Coeff.

As a guide, the following entries are already answered.
CNC1=C(C)C(=O)C(O)=C([C@H](C)CCC=C(C)C)C1=O [NSC697128]	0.4568
Cl.Oc1c(CN2CCCC2)ccc2cccnc12 [NSC693871]	0.6160
CCCCCCOc1ccc(C(=O)NO)cc1 [NSC 692754]	0.4616
C=C(C)C(=O)O[C@H]1CC2=C[C@@H](C[C@@]3(C)O[C@@H]3[C@H]3OC(=O)C(=C)[C@@H]31)OC2=O [NSC100046]	0.2949
CS(C)=O.[Cl][Pt][Cl].c1ccc2ncccc2c1 [NSC632790]	0.2677

Exercise: Give the measured Pearson's Correlation Coeff for Cc1c2ccncc2c(C)c2c1[nH]c1ccc(Cl)cc12 [NSC176326]
Key: 0.3552

Exercise: Supply measured Pearson's Correlation Coeff of COc1cc(/C=C2\CCC/C(=C\c3ccc(O)c(OC)c3)C2=O)ccc1O [NSC652893] in your reply.
Key: 0.2821

Exercise: Read the entry CC(C)=CCC[C@@H](C)C1=C(Nc2ccccc2F)C(=O)C(C)=C(O)C1=O [NSC697131] and write its reported Pearson's Correlation Coeff.
Key: 0.3514

Exercise: Look up and state reported Pearson's Correlation Coeff for O=C1c2ccccc2C(=O)c2c1nc1ccccc1c2-c1cncc(-c2c3c(nc4ccccc24)C(=O)c2ccccc2C3=O)c1 [NSC694490]
Key: 0.2438

Exercise: Answer with the recorded Pearson's Correlation Coeff of CC(=O)O[C@H]1C#C/C=C\C#CC[C@@H]2C(=O)N(C(=O)OC(C)(C)C)[C@@H]12 [NSC697686] only.
Key: 0.2297

Exercise: Provide Pearson's Correlation Coeff value for the following compound: NC(=S)NN=Cc1ncccc1O [NSC95678]
Key: 0.2475

Exercise: Check the records and state Pearson's Correlation Coeff for N[C@H](C(=O)O)[C@@H]1CC(Cl)=NO1 [NSC 163501]
Key: 0.2122

Exercise: Fill in reported Pearson's Correlation Coeff for this entry: N#Cc1c(Nc2ccccc2)[n+]([O-])c2ccc(Cl)cc2[n+]1[O-] [NSC693869]
Key: 0.2805

Exercise: Give a short answer stating reported Pearson's Correlation Coeff for CCc1ccccc1N1CCN(C(=O)c2cc(OC)c(OC)c(OC)c2)CC1 [NSC56030] .
Key: 0.2372

Exercise: Please give measured Pearson's Correlation Coeff of the following entry: O=S1(=O)CCC2=CC(C(F)(F)F)=CC(C(F)(F)F)=CN21 [NSC605440]
Key: 0.2658

Exercise: Indicate its recorded Pearson's Correlation Coeff; the compound in question is CCc1c(CNc2ccc(C(=O)NC(CC(=O)O)C(=O)O)cc2)ccc2nc(N)nc(N)c12 (stereo not drawn) [NSC184692]
Key: 0.2971

Exercise: Look up Pearson's Correlation Coeff of CCc1nc(N)nc(N)c1-c1ccc(Cl)c([N+](=O)[O-])c1 [NSC302325] and report it.
Key: 0.2979

Exercise: Specify Pearson's Correlation Coeff for CC[C@@]1(O)C[C@H](O[C@H]2C[C@H](N(C)C)[C@H](O)[C@H](C)O2)c2c(cc3c(c2O)C(=O)c2c(O)ccc(O)c2C3=O)[C@H]1C(=O)OC [NSC267229] and stop.
Key: 0.3505

Cited source: patent US20080214606A1
